Please provide measured pEC50 for the entries that follow.
# Test system: STAT1 (phosphorylated at Tyr701) in NCI-H1373 cells
# method: Phospho-STAT1 (Tyr701) LANCE Ultra TR-FRET detection assay
# Format: cell-based
# condition: Homo sapiens, NCI-H1373, 48 h, induction of pSTAT1 in NCI-H1373 cells, 48 hours incubation; normalized to 10 uM positive control and DMSO; 4-parameter fit; read-out: NH1373 pSTAT1 EC50
# Procedure: Phospho-STAT1 (Tyr701 LANCE Ultra TR-FRET Detection Assay LANCE Ultra phospho-STAT1 (Tyr701) kits are designed for the detection of phosphorylated STAT1 in cell lysates using a simple, homogeneous LANCE Ultra sandwich assay (Cat. #TRF4028M). […] After spinning the plate down at 300 rpm for 1 min, the plate is read on an EnVision plate reader set up for Eu3+ Cryptate and fluorescence emission is measured at two different wavelengths (665 nm and 620 nm). […]
Give bare numbers, as −log10 of the molar value.

// solved cases for pEC50 follow
compound	measuredOn	pEC50
O=c1[nH]ncc(N[C@H]2CCC[C@@H](Cn3ccc4cc(-c5ncc(OC(F)F)cn5)c(F)c(F)c4c3=O)C2)c1C(F)(F)F	STAT1 (phosphorylated at Tyr701) in NCI-H1373 cells	8.82
O=c1[nH]ncc(N[C@H]2CCC[C@@H](Cn3ccc4cc(-c5nc6n(n5)COCCO6)c(F)cc4c3=O)C2)c1C(F)(F)F	STAT1 (phosphorylated at Tyr701) in NCI-H1373 cells	8.23
O=c1[nH]ncc(O[C@H]2CCC[C@@H](Cn3cc(F)c4cc(-c5ncc(OC(F)(F)F)cn5)c(F)c(F)c4c3=O)C2)c1C(F)(F)F	STAT1 (phosphorylated at Tyr701) in NCI-H1373 cells	8.31
COc1cnc(-c2cc3c(F)cn(C[C@@H]4CCC[C@H](Nc5cn[nH]c(=O)c5C(F)(F)F)C4)c(=O)c3c(F)c2F)nc1	STAT1 (phosphorylated at Tyr701) in NCI-H1373 cells	8.84
CC(F)(F)c1cnc(-c2cc3c(F)cn(C[C@@H]4CCC[C@H](Nc5cn[nH]c(=O)c5C(F)(F)F)C4)c(=O)c3c(F)c2F)nc1	STAT1 (phosphorylated at Tyr701) in NCI-H1373 cells	8.58

Q. Please look at this compound and report its pEC50: O=c1[nH]ncc(N[C@H]2CCC[C@@H](Cn3cc(F)c4cc(-c5ncc(OCCO)cn5)c(F)cc4c3=O)C2)c1C(F)(F)F
A. 7.90
